Reported values of GI50 for individual entries
# Test system: HT-29
# Experiment Description: NCI tumour cell line growth inhibition, 48 h
Calls of active or inactive are those of the source. Cut-off read from the data, not from the text of the source: active = GI50 up to about 1.1 µM and inactive = higher.

Previously resolved entries follow.
{"columns": ["Compound", "Target Of Assay", "GI50"],
 "data": [
  ["CC(=O)NS(=O)(=O)c1ccc(NC(=O)COC(=O)c2cccc3c(=O)c4ccccc4[nH]c23)cc1", "HT-29", "> 100 µM (inactive)"],
  ["Nc1ncnc2c1ncn2C1C=CC(COS(N)(=O)=O)C1 (stereo not drawn)", "HT-29", "14.9 µM (inactive)"],
  ["O=C1c2ccc(O)c(O)c2C(=O)c2c(O)ccc(O)c21", "HT-29", "35.2 µM (inactive)"]
]}

May I ask what GI50 has been recorded for O=C1NN=C2C=C(c3ccc(Cl)cc3)CC(c3cccc(Br)c3)C12 (stereo not drawn) ?
> 100 µM (inactive)

Entry CC1=NNC(=O)C1C1C=C(c2c[nH]c3ccccc23)OC1=O (stereo not drawn) has what GI50?
> 100 µM (inactive)

Report GI50 for Cc1cc([N+](=O)[O-])ccc1NC(=O)C(=O)C(C(=O)c1ccccc1-c1ccccc1)C1OC(=O)c2ccccc21 (stereo not drawn) please.
18.8 µM (inactive)

What value of GI50 has been reported for the following compound? "Cc1n[nH]c(=O)n1/N=C/c1cccnc1"
> 100 µM (inactive)

Which GI50 value is on record for CC1CCC(C(C)C)C(OC(=O)NCn2cc(-c3ccccc3)nn2)C1 (stereo not drawn) ?
> 100 µM (inactive)

----------
# Tested on: NCI-H522
# Experiment Description: NCI tumour cell line growth inhibition, 48 h
Activity calls are given as the source filed them. Rule as the data show it: active = GI50 up to about 1.1 µM and inactive = higher.
Measurement Type: GI50

// worked examples, GI50 included
{"columns": ["Compound", "GI50"],
 "data": [
  ["Cc1cccc(Nc2cnc(N)nc2N)c1", "> 100 µM (inactive)"],
  ["Cc1nc2c(=S)n(C)ncc2[nH]1", "34 µM (inactive)"],
  ["COc1cc(/C=N/N=C(\\N)NO)cc(Cl)c1O", "> 100 µM (inactive)"],
  ["CCOC(=O)NC1C2CC(=O)OC(O2)C1OC(C)=O (stereo not drawn)", "> 100 µM (inactive)"],
  ["CC(=O)OCC1(C)C(O)CCC2(C)C1CCC1CC3CC12CCC3(O)CO (stereo not drawn)", "> 26.6 µM (inactive)"],
  ["CCCCNc1nc(C#N)c(N)s1", "> 100 µM (inactive)"],
  ["Nc1ccc(C(=O)NN2C(=O)C(Cl)C2c2cccc(O)c2)cc1 (stereo not drawn)", "1.75 µM (inactive)"],
  ["CCOC(=O)C1C(=O)CC(C)(O)C(C(=O)OCC)C1c1ccc(N(C)C)cc1 (stereo not drawn)", "> 100 µM (inactive)"]
]}

Query GI50 on NCI-H522 for "COC1=C(N=[N+]=[N-])C(=O)c2ncccc2C1=O"
1.9 µM (inactive)

Give recorded GI50 with NCI-H522 for the following compound: Cc1[nH]c2ccccc2c1C1Cc2ccccc2N1C(=O)/C=C/C=C/c1ccccc1 (stereo not drawn)
> 100 µM (inactive)

Look up GI50 with NCI-H522 for this compound: C1CC[N+]23CCCC[N+]2(C1)CCCC3 (stereo not drawn)
> 100 µM (inactive)

What is its GI50 for NCI-H522? Entry: "O=C(N/N=C\c1cccc2c([N+](=O)[O-])cccc12)Nc1ccccc1"
14.6 µM (inactive)

What measured GI50 is associated with O=C(CC1(O)C(=O)Nc2ccc(Br)cc21)c1ccc(Cl)cc1Cl (stereo not drawn) on NCI-H522?
25.1 µM (inactive)

----------
# Tested on: OVCAR-3
# Experiment Description: NCI tumour cell line growth inhibition, 48 h
The source made the active and inactive calls. Cut-off read from the data, not from the text of the source: active = GI50 up to about 1.1 µM and inactive = higher.
Measurement Type: GI50

Consider the following illustrative entries.
{"columns": ["Compound", "Recorded Result"],
 "data": [
  ["O=C1c2ccc(O)c(O)c2C(=O)c2c(O)ccc(O)c21 [QUINALIZARIN]", "20.3 µM (inactive)"],
  ["Nc1ccc(C(=O)NN2C(=O)C(Cl)C2c2cccc(O)c2)cc1 (stereo not drawn)", "15.8 µM (inactive)"],
  ["O=C(NNC(=S)Nc1ccccc1)c1nsc2ccccc12", "10.3 µM (inactive)"],
  ["O=[N+]([O-])c1ccc(C2NC(=S)NC3c4cc([N+](=O)[O-])ccc4CCCC23)cc1 (stereo not drawn)", "40.7 µM (inactive)"],
  ["C#CC1(O)CCCCCCCCC2(CCCCCCCC1)OCCO2", "15.4 µM (inactive)"],
  ["COC(=O)/C=C(/C(=O)OC)c1c(C)cc2c(C)cc(C)cc(C)c1-2", "10.2 µM (inactive)"],
  ["O=c1c(-c2ccccc2)c(SCCN2CCOCC2)n(-c2ccccc2)c(=S)n1-c1ccccc1", "> 100 µM (inactive)"],
  ["C=C(C(=C)N1N=NC2C3CCC(C3)C21)N1N=NC2C3CCC(C3)C21 (stereo not drawn)", "> 100 µM (inactive)"],
  ["Cc1[nH]c2ccccc2c1C1Cc2ccccc2N1C(=O)/C=C/C=C/c1ccccc1 (stereo not drawn)", "13.1 µM (inactive)"],
  ["Nc1ncnc2c1ncn2C1C=CC(COS(N)(=O)=O)C1 (stereo not drawn)", "31 µM (inactive)"]
]}

State the recorded GI50 for this entry: O=C1NC(=O)C(C(CC(=O)c2ccc([N+](=O)[O-])cc2)c2ccccc2)C(=O)N1 (stereo not drawn)
36.7 µM (inactive)

----------
This listing pairs compounds with measured GI50.
# System: A549
# Experiment Description: NCI tumour cell line growth inhibition, 48 h
Calls of active or inactive are those of the source. Rule as the data show it: active = GI50 up to about 1.1 µM and inactive = higher.

Solved cases (4 shown):
{"columns": ["Compound", "Target Of Assay", "GI50"],
 "data": [
  ["Fc1ccc2c(c1)SC1Oc3ccccc3-c3c1c-2nn3-c1ccccc1 (configuration not stated)", "A549", "> 100 µM (inactive)"],
  ["O=C(NOC(=O)c1ccc([N+](=O)[O-])cc1)c1ccc(Cl)cc1", "A549", "> 100 µM (inactive)"],
  ["O=[N+]([O-])c1ccc(C2NC(=S)NC3c4cc([N+](=O)[O-])ccc4CCCC23)cc1 (configuration not stated)", "A549", "78.3 µM (inactive)"],
  ["O=C(CC(=O)c1cccc([N+](=O)[O-])c1)C(=O)Nc1ccccc1", "A549", "> 100 µM (inactive)"]
]}

Could you share which GI50 value was measured for "Cn1c(=O)c(C(=O)NC23CC4CC(CC(C4)C2)C3)c(O)c2ccccc21" ?
28.8 µM (inactive)

Item Cc1cc2c(cc1C)NC1=C(O)C(c3c[nH]c4ccc(COc5ccccc5)cc34)OC1=N2 (configuration not stated) has what recorded GI50?
> 100 µM (inactive)

Consider the compound Cc1ccc(-c2cnc(NC3OC(COC(=O)c4ccccc4)C(OC(=O)c4ccccc4)C(OC(=O)c4ccccc4)C3OC(=O)c3ccccc3)s2)cc1 (configuration not stated) and give its measured GI50.
> 100 µM (inactive)

----------
# System: HOP-62
# Experiment Description: NCI tumour cell line growth inhibition, 48 h
Calls of active or inactive are those of the source. Cut-off read from the data, not from the text of the source: active = GI50 up to about 1.1 µM and inactive = higher.
Measurement Type: GI50

{"columns": ["Compound", "GI50"],
 "data": [
  ["COC(=O)C1=COc2c(n(C)c3ccccc23)-c2ccccc21", "> 100 µM (inactive)"],
  ["O=C(CC(=O)C1CCOC1=O)C(=O)Nc1ccc(Cl)cc1 (stereo not drawn)", "> 100 µM (inactive)"]
]}

Continue with the next compound.
Bench note: what GI50 did N#CC(C(=N/O)/C(=N\O)C(C#N)c1ccccc1)c1ccccc1 (stereo not drawn) show?
> 100 µM (inactive)

----------
This listing pairs compounds with measured GI50.
# System: KM-20L2
# Experiment Description: NCI tumour cell line growth inhibition, 48 h
Active and inactive are the calls of the source. Cut-off read from the data, not from the text of the source: active = GI50 up to about 1.1 µM and inactive = higher.

{"columns": ["Compound", "GI50"],
 "data": [
  ["Fc1ccc2c(c1)SC1Oc3ccccc3-c3c1c-2nn3-c1ccccc1 (centres undefined)", "> 100 µM (inactive)"],
  ["O=C(CC1(O)C(=O)Nc2ccc([N+](=O)[O-])cc21)c1ccncc1 (centres undefined)", "76.4 µM (inactive)"],
  ["O=C1c2ccc(O)c(O)c2C(=O)c2c(O)ccc(O)c21", "25.4 µM (inactive)"]
]}

Moving on to the next compound.
# get_value(readout='GI50', item= "Cc1c2nc3ccccc3sc-2cc(=O)c1C" )
> 72.6 µM (inactive)

----------
# Test system: HCT-15
Measurement Type: GI50

{"columns": ["Mol Smiles", "Measurement Type", "Recorded Result"],
 "data": [
  ["CS(=O)(=O)NNS(=O)(=O)c1ccccc1", "GI50", "> 100 µM"],
  ["OCc1ccccc1O[C@H]1O[C@H](CO)[C@@H](O)[C@H](O)[C@H]1O", "GI50", "> 100 µM"]
]}

GI50 of "O=C(OCCN=C1c2ccccc2CCc2ccccc21)c1cc([N+](=O)[O-])cc([N+](=O)[O-])c1" on HCT-15?
> 31.6 µM

# get_value(readout= GI50, system= HCT-15) for "CCCC(=O)N[C@@H](Cc1cc(I)c(O)c(I)c1)C(=O)NCCCNCCCCNCCCNC(=O)[C@@H](N)CCCN=C(N)N"
> 100 µM
